Tested on: NCI-H460
ASSAY_OVERVIEW: Growth inhibition of human NCI-H460 cells after 48 hrs by sulforhodamine B assay
Assay type: functional
MEASURED_PROPERTY: GI (µM)
Could you give me the number in µM? Just the number is fine.

1) COc1ccc(/C=C/c2cc(=O)cco2)cc1 : 606.1
2) O=C1C=CCC(/C=C/c2ccc(C(F)(F)F)cc2)N1 (stereo not given) : 150.4

Any idea what GI was measured for COc1cc(/C=C/C2CC=CC(=O)N2)cc(OC)c1 (stereo not given) ?
145.5

Any idea what GI was measured for COc1cc(/C=C/C2CC(=O)C=CO2)cc(OC)c1OC (stereo not given) ?
127.3

Any idea what GI was measured for O=C1C=CC[C@H](/C=C/c2ccccc2)O1 [GONIOTHALAMIN] ?
13.6

Any idea what GI was measured for O=C1C=CCC(/C=C/c2ccccc2C(F)(F)F)O1 (racemic) ?
241.5

Any idea what GI was measured for COc1ccc(C2CC(=O)C(Br)=CO2)cc1 (stereo not given) ?
117.7

Any idea what GI was measured for O=C1C=COC(/C=C/c2ccccc2)C1 (stereo not given) ?
82.4

Any idea what GI was measured for COc1ccc(/C=C/C2CC(=O)C=CO2)cc1 (stereo not given) ?
149.4

Any idea what GI was measured for `COc1ccc(/C=C/c2cc(=O)cco2)cc1OC` ?
545.5

Any idea what GI was measured for `O=c1ccoc(/C=C/c2ccccc2)c1` ?
508.5

Any idea what GI was measured for COc1cccc2c1C(=O)c1c(O)c3c(c(O)c1C2=O)C[C@@](O)(C(=O)CO)C[C@@H]3O[C@H]1C[C@H](N)[C@H](O)[C@H](C)O1 [DOXORUBICIN] ?
1.3

Any idea what GI was measured for COc1ccc(/C=C/C2CC=CC(=O)O2)cc1OC (racemic) ?
14.6

Any idea what GI was measured for COc1ccc(/C=C/C2CC(=O)C=CO2)cc1OC (stereo not given) ?
89.6

====

Tested on: 786-0
ASSAY_OVERVIEW: Growth inhibition of human 786-0 cells after 48 hrs by sulforhodamine B assay
Format: functional
Rule: yes (1) for GI not less than 100 µM, no (0) for anything less.

Example cases with answers are listed next.
1) O=C1C=COC(/C=C/c2ccc3c(c2)OCO3)C1 (stereo not drawn) : yes (1)
2) COc1ccc(/C=C/c2cc(=O)cco2)cc1OC : yes (1)
3) COc1cc(/C=C/C2CC=CC(=O)O2)cc(OC)c1OC (racemic) : no (0)
4) COc1ccc(/C=C/c2cc(=O)cco2)cc1 : yes (1)
5) COc1ccc(/C=C/C2CC=CC(=O)N2)cc1OC (stereo not drawn) : yes (1)

Determine whether measured GI meets or exceeds 100 µM for COc1cc(/C=C/C2CC=CC(=O)N2)cc(OC)c1 (stereo not drawn)
yes (1)

Determine whether measured GI meets or exceeds 100 µM for COc1ccc(/C=C/C2CC(=O)C=CO2)cc1OC (stereo not drawn)
yes (1)

Determine whether measured GI meets or exceeds 100 µM for COc1cc(/C=C/C2CC=CC(=O)O2)cc(OC)c1 (racemic)
no (0)

Determine whether measured GI meets or exceeds 100 µM for COc1ccc(/C=C/C2CC=CC(=O)N2)cc1 (stereo not drawn)
yes (1)

Determine whether measured GI meets or exceeds 100 µM for `COc1ccc(-c2cc(=O)cco2)cc1`
yes (1)

Determine whether measured GI meets or exceeds 100 µM for COc1cc(/C=C/C2CC=CC(=O)N2)cc(OC)c1OC (stereo not drawn)
yes (1)

Determine whether measured GI meets or exceeds 100 µM for `O=c1ccoc(/C=C/c2ccccc2)c1`
yes (1)

Determine whether measured GI meets or exceeds 100 µM for COc1ccc(C2CC(=O)C(Br)=CO2)cc1 (stereo not drawn)
no (0)

====

Test system: 786-0
ASSAY_OVERVIEW: Growth inhibition of human 786-0 cells after 48 hrs by sulforhodamine B assay
Format: functional
Threshold-based label: GI under 20 µM gives t, GI not under 20 µM gives f.

Example cases with answers are listed next.
1) O=C1C=CC[C@H](/C=C/c2ccccc2)O1 [GONIOTHALAMIN] : t
2) O=C1C=CCC(/C=C/c2ccc(C(F)(F)F)cc2)O1 (racemic) : f
3) O=C1C=CCC(/C=C/c2ccccc2)N1 (centres undefined) : f

Hello, is GI of the following compound strictly smaller than 20 µM? COc1ccc(/C=C/C2CC=CC(=O)N2)c(OC)c1 (centres undefined)
f

Hello, is GI of the following compound strictly smaller than 20 µM? O=C1C=CCC(/C=C/c2ccccc2C(F)(F)F)O1 (racemic)
f

Hello, is GI of the following compound strictly smaller than 20 µM? COc1ccc(C2CC(=O)C(I)=CO2)cc1 (centres undefined)
f

Hello, is GI of the following compound strictly smaller than 20 µM? O=C1C=CCC(/C=C/c2ccc(C(F)(F)F)cc2)N1 (centres undefined)
f

Hello, is GI of the following compound strictly smaller than 20 µM? COc1ccc(/C=C/C2CC(=O)C=CO2)cc1 (centres undefined)
f

Hello, is GI of the following compound strictly smaller than 20 µM? COc1cc(OC)c(OC)cc1/C=C/C1CC=CC(=O)O1 (racemic)
t

Hello, is GI of the following compound strictly smaller than 20 µM? COc1ccc(/C=C/C2CC=CC(=O)O2)c(OC)c1 (racemic)
t

====

ASSAY_OVERVIEW: Growth inhibition of human HaCaT cells after 48 hrs by sulforhodamine B assay
Assay type: cell-based
MEASURED_PROPERTY: TGI at 48 h (µM)
Could you give me the number in µM? Just the number is fine.

Study these solved cases before continuing.
1. COc1ccc(C2CC(=O)C=CO2)cc1 (configuration not stated) : 264
2. COc1ccc(/C=C/C2CC(=O)C=CO2)cc1 (configuration not stated) : 144
3. COc1cccc2c1C(=O)c1c(O)c3c(c(O)c1C2=O)C[C@@](O)(C(=O)CO)C[C@@H]3O[C@H]1C[C@H](N)[C@H](O)[C@H](C)O1 : 0.8
4. O=C1C=CCC(/C=C/c2ccccc2C(F)(F)F)N1 (configuration not stated) : 249
5. COc1ccc(/C=C/c2cc(=O)cco2)cc1OC : 690
6. COc1ccc(/C=C/C2CC=CC(=O)O2)c(OC)c1 (racemic) : 15.8
7. COc1ccc(C2CC(=O)C(Br)=CO2)cc1 (configuration not stated) : 164
8. COc1ccc(/C=C/C2CC(=O)C=CO2)cc1OC (configuration not stated) : 134

Any idea what TGI at 48 h was measured for COc1ccc(/C=C/C2CC=CC(=O)O2)cc1 (racemic) ?
58.8

Any idea what TGI at 48 h was measured for `O=C1C=CC[C@H](/C=C/c2ccccc2)O1` ?
27.7

Any idea what TGI at 48 h was measured for O=C1C=CCC(/C=C/c2ccc(C(F)(F)F)cc2)N1 (configuration not stated) ?
174

Any idea what TGI at 48 h was measured for O=C1C=CCC(/C=C/c2ccc(C(F)(F)F)cc2)O1 (racemic) ?
69.7

Any idea what TGI at 48 h was measured for `COc1ccc(/C=C/c2cc(=O)cco2)cc1` ?
710

Any idea what TGI at 48 h was measured for COc1ccc(/C=C/C2CC=CC(=O)O2)cc1OC (racemic) ?
63

Any idea what TGI at 48 h was measured for COc1cc(/C=C/C2CC(=O)C=CO2)cc(OC)c1OC (configuration not stated) ?
155

Any idea what TGI at 48 h was measured for COc1cc(/C=C/C2CC=CC(=O)O2)cc(OC)c1OC (racemic) ?
21.6

====

Listed here are compounds together with their documented GI.
System: HT-29
ASSAY_OVERVIEW: Growth inhibition of human HT-29 cells after 48 hrs by sulforhodamine B assay
Format: functional
Could you give me the number in µM? Just the number is fine.

1) O=C1C=CCC(/C=C/c2ccc(C(F)(F)F)cc2)N1 (stereo not drawn) : 139.2

Now consider the entry below.
Any idea what GI was measured for `COc1ccc(/C=C/c2cc(=O)cco2)cc1OC` ?
806.7

====

Tested on: HT-29
ASSAY_OVERVIEW: Growth inhibition of human HT-29 cells after 48 hrs by sulforhodamine B assay
Format: functional
MEASURED_PROPERTY: GI (µM)
Could you give me the number in µM? Just the number is fine.

Study these solved cases before continuing.
1) O=C1C=COC(/C=C/c2ccccc2)C1 (configuration not stated) : 123.6
2) COc1ccc(C2CC(=O)C=CO2)cc1 (configuration not stated) : 203.4
3) O=C1C=COC(/C=C/c2ccc3c(c2)OCO3)C1 (configuration not stated) : 126.9
4) COc1cc(/C=C/C2CC(=O)C=CO2)cc(OC)c1OC (configuration not stated) : 134.5
5) O=C1C=CCC(/C=C/c2ccc(C(F)(F)F)cc2)O1 (racemic) : 36.2
6) COc1ccc(C2CC(=O)C(Br)=CO2)cc1 (configuration not stated) : 69
7) COc1cc(/C=C/C2CC=CC(=O)O2)cc(OC)c1OC (racemic) : 18.8
8) O=C1C=COC(/C=C/c2ccc(C(F)(F)F)cc2)C1 (configuration not stated) : 33.3
9) COc1ccc(/C=C/C2CC(=O)C=CO2)cc1 (configuration not stated) : 203.9

Any idea what GI was measured for `O=C1C=CC[C@H](/C=C/c2ccccc2)O1` ?
13.9
